I'd be grateful if you could share measured pIC50 for these entries.
measured-target: Chymotrypsin, from human pancreas (Homo sapiens, UniProt P17538)
Sequence (P17538 19-263): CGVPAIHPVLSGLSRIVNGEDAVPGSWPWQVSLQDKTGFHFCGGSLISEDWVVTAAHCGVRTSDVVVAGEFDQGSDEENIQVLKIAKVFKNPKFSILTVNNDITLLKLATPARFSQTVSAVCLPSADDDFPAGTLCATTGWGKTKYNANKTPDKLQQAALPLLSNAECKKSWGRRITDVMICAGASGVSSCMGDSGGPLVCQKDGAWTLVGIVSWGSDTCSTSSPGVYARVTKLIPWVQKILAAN
experiment-notes: Enzymatic assay, chymotrypsin
Where a SMILES comes first, the peptide text is derived from it.
In plain terms, pIC50 is the concentration in mol/L turned into minus its base-10 logarithm.

input: Given the entry CCCC[C@@H]1NC(=O)[C@H](CC(=O)O)NC(=O)[C@H]2CCCN2C(=O)[C@H](Cc2ccc(O)cc2)NC(=O)[C@@H]2CSSC[C@H](NC1=O)C(=O)N[C@@H]([C@@H](C)O)C(=O)N[C@@H](C)C(=O)N[C@@H](CO)C(=O)N[C@@H]([C@@H](C)CC)C(=O)N1CCC[C@H]1C(=O)N1CCC[C@H]1C(=O)N[C@@H](CCC(N)=O)C(=O)N2 [Ex. 121] (HELM PEPTIDE1{[Nle].C.T.A.S.I.P.P.Q.C.Y.[dP].D}$PEPTIDE1,PEPTIDE1,2:R3-10:R3|PEPTIDE1,PEPTIDE1,1:R1-13:R2$$$V2.0) , report its measured pIC50.
output: 4.56

input: Fill blank: measured pIC50 of the compound CCCC[C@@H]1NC(=O)[C@@H]2CCCN2C(=O)[C@H]2CCCN2C(=O)[C@H](Cc2ccc(O)cc2)NC(=O)[C@@H]2CSSC[C@H](NC1=O)C(=O)N[C@@H]([C@@H](C)O)C(=O)N[C@@H](C)C(=O)N[C@@H](CO)C(=O)N[C@@H]([C@@H](C)CC)C(=O)N1CCC[C@H]1C(=O)N1CC(NC(=O)c3ccccc3)C[C@H]1C(=O)N[C@@H](CCC(N)=O)C(=O)N2 (single isomer, unassigned) is ____.
output: 5.37

====

Consider the following compounds; for each one, report its FXa at 100 μM %.
measured-target: Coagulation Factor Xa, from uman plasma (Homo sapiens, UniProt P00742)
Sequence (P00742 235-488 limits assumed): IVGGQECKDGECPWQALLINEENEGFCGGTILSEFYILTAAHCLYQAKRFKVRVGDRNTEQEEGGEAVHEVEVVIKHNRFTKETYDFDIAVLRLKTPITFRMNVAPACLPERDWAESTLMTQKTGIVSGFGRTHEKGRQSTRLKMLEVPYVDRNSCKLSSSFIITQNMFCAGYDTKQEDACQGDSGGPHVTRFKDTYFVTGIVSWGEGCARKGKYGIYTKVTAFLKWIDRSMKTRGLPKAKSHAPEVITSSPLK
Sequence (P00742 41-179 limits assumed): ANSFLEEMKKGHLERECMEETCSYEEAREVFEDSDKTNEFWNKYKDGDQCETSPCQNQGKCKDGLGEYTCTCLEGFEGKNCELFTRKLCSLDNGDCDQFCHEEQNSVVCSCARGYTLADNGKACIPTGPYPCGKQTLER
experiment-notes: Enzymatic assay, coagulation factor Xa
Where a SMILES comes first, the peptide text is derived from it.
// return numeric value only (unit: %, not printed)

input: Notebook entry, Coagulation Factor Xa, from uman plasma (Homo sapiens, UniProt P00742) assay: FXa at 100 μM % of CCCC[C@@H]1NC(=O)[C@@H]2CCCN2C(=O)[C@H]2CCCN2C(=O)[C@H](CCC(N)=O)NC(=O)[C@@H]2CSSC[C@H](NC1=O)C(=O)N[C@@H]([C@@H](C)O)C(=O)N[C@@H](C)C(=O)N[C@@H](CO)C(=O)N[C@@H]([C@@H](C)CC)C(=O)N1CCC[C@H]1C(=O)N1CCC[C@H]1C(=O)N[C@@H](CCC(N)=O)C(=O)N2 [Ex. 91] (HELM PEPTIDE1{[Nle].C.T.A.S.I.P.P.Q.C.Q.[dP].P}$PEPTIDE1,PEPTIDE1,2:R3-10:R3|PEPTIDE1,PEPTIDE1,1:R1-13:R2$$$V2.0) = ?
output: 19.4

input: Given the entry CCCC[C@@H]1NC(=O)[C@@H]2CCCN2C(=O)[C@H]2CCCN2C(=O)[C@H](Cc2ccc(O)cc2)NC(=O)[C@@H]2CSSC[C@H](NC1=O)C(=O)N[C@@H]([C@@H](C)O)C(=O)N[C@@H](C)C(=O)N[C@@H](CO)C(=O)N[C@@H](C1CCCCC1)C(=O)N1CCC[C@H]1C(=O)N1CCC[C@H]1C(=O)N[C@@H](CCC(N)=O)C(=O)N2 [Ex. 84] (HELM PEPTIDE1{[Nle].C.T.A.S.[O=C([C@@H](N[*:1])C1CCCCC1)[*:2]].P.P.Q.C.Y.[dP].P}$PEPTIDE1,PEPTIDE1,2:R3-10:R3|PEPTIDE1,PEPTIDE1,1:R1-13:R2$$$V2.0) , what FXa at 100 μM % was observed with Coagulation Factor Xa, from uman plasma (Homo sapiens, UniProt P00742)?
output: 13.3

input: Return FXa at 100 μM % measured with Coagulation Factor Xa, from uman plasma (Homo sapiens, UniProt P00742) given this compound: CC[C@H](C)[C@@H]1NC(=O)[C@@H]2CCCN2C(=O)[C@@H]2CCCN2C(=O)[C@H](CC(=O)O)NC(=O)[C@H](CO)NC(=O)[C@H](CCCCN)NC(=O)[C@H]([C@@H](C)O)NC(=O)[C@@H]2CSSC[C@H](NC1=O)C(=O)N[C@@H](Cc1ccc(O)cc1)C(=O)N1CCC[C@@H]1C(=O)N1CCC[C@H]1C(=O)N[C@@H](C1CCCCC1)C(=O)N2 [Ex. 40] (HELM PEPTIDE1{[O=C([C@@H](N[*:1])C1CCCCC1)[*:2]].C.T.K.S.D.P.P.I.C.Y.[dP].P}$PEPTIDE1,PEPTIDE1,2:R3-10:R3|PEPTIDE1,PEPTIDE1,1:R1-13:R2$$$V2.0)
output: 3

input: Hi! What's the reported FXa at 100 μM % for CC[C@H](C)[C@@H]1NC(=O)[C@@H]2CCCN2C(=O)[C@@H]2CCCN2C(=O)[C@H](CC(=O)O)NC(=O)[C@H](CO)NC(=O)[C@H](CCCCN)NC(=O)[C@H]([C@@H](C)O)NC(=O)[C@@H]2CSSC[C@H](NC1=O)C(=O)N[C@@H](Cc1ccc(O)cc1)C(=O)N1CCC[C@@H]1C(=O)N1CCC[C@H]1C(=O)N[C@@H](Cc1ccccc1)C(=O)N2 [Ex. 5] (HELM PEPTIDE1{F.C.T.K.S.D.P.P.I.C.Y.[dP].P}$PEPTIDE1,PEPTIDE1,2:R3-10:R3|PEPTIDE1,PEPTIDE1,1:R1-13:R2$$$V2.0) on Coagulation Factor Xa, from uman plasma (Homo sapiens, UniProt P00742)?
output: 0.2

====

measured-target: Chymotrypsin, from human pancreas (Homo sapiens, UniProt P17538)
experiment-notes: Enzymatic assay, chymotrypsin
Where a SMILES comes first, the peptide text is derived from it.
Could you please report measured IC50 for the items listed next?
Give just the numeric value; µM need not be written.

input: Consider the compound shown here: CCCC[C@@H]1NC(=O)[C@@H]2CCCN2C(=O)[C@H]2CCCN2C(=O)[C@H](CC2CCCCC2)NC(=O)[C@@H]2CSSC[C@H](NC1=O)C(=O)N[C@@H]([C@@H](C)O)C(=O)N[C@@H](C)C(=O)N[C@@H](CO)C(=O)N[C@@H]([C@@H](C)CC)C(=O)N1CCC[C@H]1C(=O)N1CCC[C@H]1C(=O)N[C@@H](CCC(N)=O)C(=O)N2 [Ex. 97] (HELM PEPTIDE1{[Nle].C.T.A.S.I.P.P.Q.C.[Cha].[dP].P}$PEPTIDE1,PEPTIDE1,2:R3-10:R3|PEPTIDE1,PEPTIDE1,1:R1-13:R2$$$V2.0) What is its recorded IC50?
output: 77.4

input: Quick check: IC50 of CCCC[C@@H]1NC(=O)[C@@H]2CCCN2C(=O)[C@H]2CCCN2C(=O)[C@H](Cc2ccccc2)NC(=O)[C@@H]2CSSC[C@H](NC1=O)C(=O)N[C@@H]([C@@H](C)O)C(=O)N[C@@H](C)C(=O)N[C@@H](CO)C(=O)N[C@@H]([C@@H](C)CC)C(=O)N1CCC[C@H]1C(=O)N1CCC[C@H]1C(=O)N[C@@H](CCC(N)=O)C(=O)N2 [Ex. 90] (HELM PEPTIDE1{[Nle].C.T.A.S.I.P.P.Q.C.F.[dP].P}$PEPTIDE1,PEPTIDE1,2:R3-10:R3|PEPTIDE1,PEPTIDE1,1:R1-13:R2$$$V2.0) ?
output: 33.1

====

Kindly state Tryptase at 100 μM % for each of the entries shown.
System: Tryptase, from human lung
experiment-notes: Enzymatic assay, tryptase
protocol-conditions: at 100 μM
Where a SMILES comes first, the peptide text is derived from it.
A complete answer gives the number and then names the unit.

input: State the recorded Tryptase at 100 μM % for this entry: CC[C@H](C)[C@@H]1NC(=O)[C@H](C)NC(=O)[C@@H]2CCCN2C(=O)[C@H](CC(=O)O)NC(=O)[C@H](CO)NC(=O)[C@H](CCCCN)NC(=O)[C@H]([C@@H](C)O)NC(=O)[C@@H]2CSSC[C@H](NC1=O)C(=O)N[C@@H](CCCNC(=N)N)C(=O)N1CCC[C@@H]1C(=O)N1CCC[C@H]1C(=O)N[C@@H]([C@@H](C)CC)C(=O)N2 [Ex. 14] (HELM PEPTIDE1{I.C.T.K.S.D.P.A.I.C.R.[dP].P}$PEPTIDE1,PEPTIDE1,2:R3-10:R3|PEPTIDE1,PEPTIDE1,1:R1-13:R2$$$V2.0)
output: 84.2%

input: Value lookup for Tryptase at 100 μM %; key = C[C@@H](O)[C@@H]1NC(=O)[C@@H]2CSSC[C@H](NC(=O)[C@H](Cc3ccc(O)cc3)NC(=O)[C@@H]3CCCN3C(=O)[C@@H]3CCCN3C(=O)[C@H](CC(=O)O)NC(=O)[C@H](CO)NC(=O)[C@H](CCCCN)NC1=O)C(=O)N[C@@H](Cc1ccc(O)cc1)C(=O)N1CCC[C@@H]1C(=O)N1CCC[C@H]1C(=O)N[C@@H](C1CCCCC1)C(=O)N2 [Ex. 65] (HELM PEPTIDE1{[O=C([C@@H](N[*:1])C1CCCCC1)[*:2]].C.T.K.S.D.P.P.Y.C.Y.[dP].P}$PEPTIDE1,PEPTIDE1,2:R3-10:R3|PEPTIDE1,PEPTIDE1,1:R1-13:R2$$$V2.0)
output: 57%

input: Quick check: Tryptase at 100 μM % of CC[C@H](C)[C@@H]1NC(=O)[C@@H]2CCCN2C(=O)[C@@H]2CCCN2C(=O)[C@H](CC(=O)O)NC(=O)[C@H](CO)NC(=O)[C@H](CCCCN)NC(=O)[C@H]([C@@H](C)O)NC(=O)[C@@H]2CSSC[C@H](NC1=O)C(=O)N[C@@H](CC(N)=O)C(=O)N1CCC[C@@H]1C(=O)N1CCC[C@H]1C(=O)N[C@@H](Cc1ccccc1)C(=O)N2 [Ex. 3] (HELM PEPTIDE1{F.C.T.K.S.D.P.P.I.C.N.[dP].P}$PEPTIDE1,PEPTIDE1,2:R3-10:R3|PEPTIDE1,PEPTIDE1,1:R1-13:R2$$$V2.0) ?
output: 68%

input: What value of measured Tryptase at 100 μM % is listed for CCCC[C@@H]1NC(=O)[C@H](CC(=O)O)NC(=O)[C@H]2CCCN2C(=O)[C@H](Cc2ccc(O)cc2)NC(=O)[C@@H]2CSSC[C@H](NC1=O)C(=O)N[C@@H]([C@@H](C)O)C(=O)N[C@@H](C)C(=O)N[C@@H](CO)C(=O)N[C@@H]([C@@H](C)CC)C(=O)N1CCC[C@H]1C(=O)N1CCC[C@H]1C(=O)N[C@@H](CCC(N)=O)C(=O)N2 [Ex. 121] (HELM PEPTIDE1{[Nle].C.T.A.S.I.P.P.Q.C.Y.[dP].D}$PEPTIDE1,PEPTIDE1,2:R3-10:R3|PEPTIDE1,PEPTIDE1,1:R1-13:R2$$$V2.0) ?
output: 4.6%

Origin of measurements: patent US8658604B2
